Source: PubChem BioAssay AID1851

assaySystem: Cytochrome P450 2D6 (Homo sapiens)
protocolNotes: Cytochrome panel assay with activity outcomes; also: % is scaled to controls: 0 for no effect and ±100 for the full control effect
experimentalContext: recombinant CYP, pro-luciferin dealkylation, luminescence, p450-cyp2d6; series mostly up to 57.1 µM
Among all 16,000 compounds or so, about 2,600 (16%) were called active. Roughly 20% stayed inconclusive and do not appear here. Only a sample is shown.
Give measured activity, negative = inhibition for each item. Keep answers brief.

Query :: Indicate its recorded activity, negative = inhibition; the compound in question is CC(C)=NO[C@@H](C)c1cc(-c2c(C)cc(C)cc2C)no1
Result :: -6.21% [at 11.4 µM] (inactive)

Query :: Indicate its recorded activity, negative = inhibition; the compound in question is Cc1ccc(S(=O)(=O)NC(=O)OC23COCN2COC3)cc1
Result :: 18.1% [at 11.4 µM] (inactive)

Query :: Indicate its recorded activity, negative = inhibition; the compound in question is CCCNC(=O)OC[C@@H]1O[C@H](CCO/N=C\c2ccc(C(=O)N3[C@H](c4ccc(C)cc4)[C@@H](C)CC[C@H]3C(=O)OC)cc2)C=C[C@@H]1Oc1ccc(OC)cc1
Result :: 9.53% [at 11.4 µM] (inactive)

Query :: Indicate its recorded activity, negative = inhibition; the compound in question is CC(=NC1CCCCC1)c1ccccc1O
Result :: -7.44% [at 11.4 µM] (inactive)

Query :: Indicate its recorded activity, negative = inhibition; the compound in question is COC(=O)[C@@H]1[C@@H]2C[C@H]3c4[nH]c5ccccc5c4CCN3C[C@@H]2CC[C@@H]1OS(=O)(=O)O
Result :: -18.5% [at 11.4 µM] (inactive)
